test system: SYO-1; assay: relative viability vs DMSO control (72 h) (fraction); higher = more viable cells; settings: 0.00051 µM
// relative viability lookup, one value per entry
No unit in the answer, please; the number alone is enough.

Completed entries (count: 2):
INSERT INTO assay_data (compound, quantity, assay_result) VALUES
  ('O=C(/C=C\n1cnc(-c2cc(C(F)(F)F)cc(C(F)(F)F)c2)n1)NNc1cnccn1 [Selinexor]', 'relative viability', 1.02),
  ('CO[C@H]1C[C@@H]2CC[C@@H](C)[C@@](O)(O2)C(=O)C(=O)N2CCCC[C@H]2C(=O)O[C@H]([C@H](C)C[C@@H]2CC[C@@H](OC(=O)C(C)(CO)CO)[C@H](OC)C2)CC(=O)[C@H](C)/C=C(\C)[C@@H](O)[C@@H](OC)C(=O)[C@H](C)C[C@H](C)/C=C/C=C/C=C/1C', 'relative viability', 0.877);

// switching to the query compound
Test item COC(=O)c1ccc2c(c1)NC(=O)/C2=C(\Nc1ccc(N(C)C(=O)CN2CCN(C)CC2)cc1)c1ccccc1 ; SYO-1; reported relative viability was 0.985

---

test system: SW684; experiment: standardised AUC of viability dose-response curve (72 h) (fraction (0-1)); higher = less growth inhibition (more resistant)
Below, each entry is listed alongside its reported standardised AUC.
Give a plain numeric answer without units written out.

Worked cases, answers included:
INSERT INTO assay_data (compound, assay_result) VALUES
  ('O=C(/C=C\n1cnc(-c2cc(C(F)(F)F)cc(C(F)(F)F)c2)n1)NNc1cnccn1 [SELINEXOR]', 0.847),
  ('C#Cc1cccc(Nc2ncnc3cc4c(cc23)OCCOCCOCCO4)c1', 0.986),
  ('O=C(c1ccc(F)c(F)c1Nc1ccc(I)cc1F)N1CC(O)([C@@H]2CCCCN2)C1', 0.748);

standardised AUC reading for CO[C@H]1C[C@@H]2CC[C@@H](C)[C@@](O)(O2)C(=O)C(=O)N2CCCC[C@H]2C(=O)O[C@H]([C@H](C)C[C@@H]2CC[C@@H](OC(=O)C(C)(CO)CO)[C@H](OC)C2)CC(=O)[C@H](C)/C=C(\C)[C@@H](O)[C@@H](OC)C(=O)[C@H](C)C[C@H](C)/C=C/C=C/C=C/1C : 0.933

---

test system: RD-ES; test: relative viability vs DMSO control (72 h) (fraction); higher = more viable cells; settings: 0.04115 µM
Each record here notes measured relative viability.

// below: answered molecules
INSERT INTO assay_data (molecule, assay_result) VALUES
  ('CS(=O)(=O)CCNCc1ccc(-c2ccc3ncnc(Nc4ccc(OCc5cccc(F)c5)c(Cl)c4)c3c2)o1 [Lapatinib]', 0.964),
  ('C[C@@H]1CN(C(=O)c2ccc(NC(=O)c3cc(O[C@H](C)c4c(Cl)ccc(F)c4Cl)c(N)nn3)cc2)C[C@H](C)N1 [Ensartinib]', 0.974),
  ('C#Cc1cccc(Nc2ncnc3cc4c(cc23)OCCOCCOCCO4)c1 [Icotinib]', 0.982),
  ('CC(=O)c1c(C)c2cnc(Nc3ccc(N4CCNCC4)cn3)nc2n(C2CCCC2)c1=O [Palbociclib]', 0.835),
  ('CCOc1cc2ncc(C#N)c(Nc3ccc(OCc4ccccn4)c(Cl)c3)c2cc1NC(=O)/C=C/CN(C)C [Neratinib]', 0.977);

The recorded relative viability for entry CCS(=O)(=O)N1CC(CC#N)(n2cc(-c3ncnc4[nH]ccc34)cn2)C1 [Baricitinib] equals 0.947

---

// reported relative viability per item
system: KHOS-240S; test: relative viability vs DMSO control (72 h) (fraction); higher = more viable cells; conditions: 0.01372 µM
Kindly provide the number alone.

Worked examples, 2 compounds total:
INSERT INTO results (given_smiles, quantity, assay_result) VALUES
  ('CO[C@H]1C[C@@H]2CC[C@@H](C)[C@@](O)(O2)C(=O)C(=O)N2CCCC[C@H]2C(=O)O[C@H]([C@H](C)C[C@@H]2CC[C@@H](OC(=O)C(C)(CO)CO)[C@H](OC)C2)CC(=O)[C@H](C)/C=C(\C)[C@@H](O)[C@@H](OC)C(=O)[C@H](C)C[C@H](C)/C=C/C=C/C=C/1C', 'relative viability', 0.807),
  ('CS(=O)(=O)CCNCc1ccc(-c2ccc3ncnc(Nc4ccc(OCc5cccc(F)c5)c(Cl)c4)c3c2)o1', 'relative viability', 1.09);

Let us examine a further case.
Reported relative viability of Cn1cnc2c(F)c(Nc3ccc(Br)cc3Cl)c(C(=O)NOCCO)cc21 : 0.959

---

# relative viability per record follows
system: HS729; assay: relative viability vs DMSO control (72 h) (fraction); higher = more viable cells; details: 3.333 µM
Lab note: record just the number, no unit beside it.

Examples from the recorded data:
INSERT INTO results (compound, assay_result) VALUES
  ('O=C1CCc2c(Oc3ccc4c(c3)[C@@H]3[C@H](O4)[C@H]3c3nc4cc(C(F)(F)F)ccc4[nH]3)ccnc2N1 [Lifirafenib]', 0.851),
  ('CNC(=O)c1cccc2cc(Oc3ccnc4cc(OCC5(N)CC5)c(OC)cc34)ccc12 [Lucitanib]', 0.618),
  ('COc1cc(N2CCC(N3CCN(C)CC3)CC2)ccc1Nc1ncc(Cl)c(Nc2ccccc2P(C)(C)=O)n1 [Brigatinib]', 0.199),
  ('COc1cc2ncnc(Nc3ccc(F)c(Cl)c3)c2cc1OCCCN1CCOCC1 [Gefitinib]', 0.853),
  ('Cc1c2oc3c(C)ccc(C(=O)N[C@@H]4C(=O)N[C@H](C(C)C)C(=O)N5CCC[C@H]5C(=O)N(C)CC(=O)N(C)[C@@H](C(C)C)C(=O)O[C@@H]4C)c3nc-2c(C(=O)N[C@@H]2C(=O)N[C@H](C(C)C)C(=O)N3CCC[C@H]3C(=O)N(C)CC(=O)N(C)[C@@H](C(C)C)C(=O)O[C@@H]2C)c(N)c1=O [Dactinomycin]', 0.113);

Please turn your attention to the following entry.
Per the record, Cn1cnc2c(F)c(Nc3ccc(Br)cc3Cl)c(C(=O)NOCCO)cc21 [Selumetinib] has relative viability of 0.82

---

# relative viability values compiled below
system: SW982; assay: relative viability vs DMSO control (72 h) (fraction); higher = more viable cells; details: 0.01372 µM

INSERT INTO assay_data (given_smiles, quantity, assay_result) VALUES
  ('CN(C)C/C=C/C(=O)Nc1cc2c(Nc3ccc(F)c(Cl)c3)ncnc2cc1O[C@H]1CCOC1', 'relative viability', 1.05);

In plain terms, CCOc1cc2ncc(C#N)c(Nc3ccc(OCc4ccccn4)c(Cl)c3)c2cc1NC(=O)/C=C/CN(C)C has a documented relative viability of 1.05

The compound listed as C[C@@H]1CN(C(=O)c2ccc(NC(=O)c3cc(O[C@H](C)c4c(Cl)ccc(F)c4Cl)c(N)nn3)cc2)C[C@H](C)N1 has a reported relative viability of 0.97

The compound identified as C=CC(=O)N1CCC(CNc2ncnc(N)c2-c2ccc(Oc3ccccc3)cc2)CC1 registered its relative viability at 1.08

---

test system: SW684; experiment: relative viability vs DMSO control (72 h) (fraction); higher = more viable cells; conditions: 0.00051 µM
Parameter: relative viability. Scope: all listed entries.
Give a plain numeric answer without units written out.

// relative viability value for COc1cc(Nc2ncc3c(n2)-c2ccc(Cl)cc2C(c2c(F)cccc2OC)=NC3)ccc1C(=O)O [Alisertib] : 1.17

# relative viability (compound: CCOc1cc2ncc(C#N)c(Nc3ccc(OCc4ccccn4)c(Cl)c3)c2cc1NC(=O)/C=C/CN(C)C [Neratinib] ) is 1.1

The reported relative viability of the compound C#Cc1cccc(Nc2ncnc3cc4c(cc23)OCCOCCOCCO4)c1 [Icotinib] was 1.18

---

Entries and their relative viability values follow.
tested on: A204; experiment: relative viability vs DMSO control (72 h) (fraction); higher = more viable cells; conditions: 0.00017 µM
Form: value (number only, do not type unit).

// below: answered compounds
INSERT INTO results (compound, quantity, assay_result) VALUES
  ('Cn1cnc2c(F)c(Nc3ccc(Br)cc3Cl)c(C(=O)NOCCO)cc21 [Selumetinib]', 'relative viability', 1.03),
  ('O=C1CCc2c(Oc3ccc4c(c3)[C@@H]3[C@H](O4)[C@H]3c3nc4cc(C(F)(F)F)ccc4[nH]3)ccnc2N1 [Lifirafenib]', 'relative viability', 1.1),
  ('C[C@@H]1CN(C(=O)c2ccc(NC(=O)c3cc(O[C@H](C)c4c(Cl)ccc(F)c4Cl)c(N)nn3)cc2)C[C@H](C)N1 [Ensartinib]', 'relative viability', 1.07),
  ('COc1cc(Nc2ncc3c(n2)-c2ccc(Cl)cc2C(c2c(F)cccc2OC)=NC3)ccc1C(=O)O [Alisertib]', 'relative viability', 1.07),
  ('O=C(c1ccc(F)c(F)c1Nc1ccc(I)cc1F)N1CC(O)([C@@H]2CCCCN2)C1 [Cobimetinib]', 'relative viability', 1.1),
  ('Cc1cc2c(F)c(Oc3ncnn4cc(OC[C@@H](C)OC(=O)[C@H](C)N)c(C)c34)ccc2[nH]1 [Brivanib_alaninate]', 'relative viability', 1.05);

# compound CCOc1cc2ncc(C#N)c(Nc3ccc(OCc4ccccn4)c(Cl)c3)c2cc1NC(=O)/C=C/CN(C)C [Neratinib] ; its relative viability = 1.09

Notebook: Cc1c2oc3c(C)ccc(C(=O)N[C@@H]4C(=O)N[C@H](C(C)C)C(=O)N5CCC[C@H]5C(=O)N(C)CC(=O)N(C)[C@@H](C(C)C)C(=O)O[C@@H]4C)c3nc-2c(C(=O)N[C@@H]2C(=O)N[C@H](C(C)C)C(=O)N3CCC[C@H]3C(=O)N(C)CC(=O)N(C)[C@@H](C(C)C)C(=O)O[C@@H]2C)c(N)c1=O [Dactinomycin] , relative viability read as 1.02

Field relative viability (entry O=C(/C=C\n1cnc(-c2cc(C(F)(F)F)cc(C(F)(F)F)c2)n1)NNc1cnccn1 [Selinexor] ) reads 1.1
